tested on: TYKNU; test: fractional viability relative to vehicle; TYKNU is a high-grade serous ovarian cancer line; higher = less growth inhibition; settings: 2uM; 72 h; genotype: DNM1L knockout (sgDNM1L #1)
Counter-ions that a name gives are not always drawn. In all, about 2,000 compounds were measured (“fractional viability relative to vehicle”: median about 0.91, lowest 2% from about 0.045 on). Many of the other results were omitted from the sample, so the lowest values are more common in it than they were.
Exercise: state measured fractional viability for each of the compounds provided.
When you answer, write just the number.

fractional viability recorded for this compound, O=C(O)c1ccccc1 [Benzoic Acid] , is 0.793

Notebook: NC(=O)[C@@H](CCC(F)(F)F)N(Cc1ccc(-c2ncon2)cc1F)S(=O)(=O)c1ccc(Cl)cc1 , fractional viability read as 0.818

Value of measured fractional viability for the entry CCN(CC)CCNC(=O)c1ccc(N)cc1 [Procainamide HCl] : 0.791

The origin of these recorded values is the supplement of paper PMC5919970.
